Parameter: IC90. Scope: all listed entries.
# System: Huh7 cells expressing a subgenomic RNA replicon of Con1 (genotype 1b) sequence origin
# Protocol text: microbe, parasite or virus in culture
# Condition set: Hepatitis C virus, Huh-7
Form entry: value (µM) — number only.

Here are 5 molecules together with their reported answers.
1) CC(=O)Nc1ccc2c(c1)C(C(C)C)CCC2c1ccc(Cl)c(Cl)c1 (stereo not drawn)	37.7
2) CSc1ccc(Oc2ccc(S(N)(=O)=O)cc2CN2CCCN(C)CC2)cc1C	16.1
3) CCCCC(=O)Nc1ccc2c(c1)[C@@H](NC)CC[C@H]2c1ccc(Cl)c(Cl)c1 [Sertraline A-Ring Reverse Pentanamide]	5.03
4) CN[C@H]1CC[C@@H](c2ccc(Cl)c(Cl)c2)c2ccccc21 [Sertraline, sertraline, reference compound]	11.3
5) CSc1ccc(Oc2ccc(S(N)(=O)=O)cc2CN2CCC(N3CCOCC3)CC2)cc1C	21.3

Data request: Look up IC90 for this molecule: CN[C@H]1CC[C@@H](c2ccc(Cl)c(Cl)c2)c2ccc(CS(C)(=O)=O)cc21
Data returned: 7.89

Data request: Dear colleague, I am looking for the recorded IC90 of the following molecule: CN[C@H]1CC[C@@H](c2ccc(Cl)c(Cl)c2)c2ccc(N(C)C)cc21
Data returned: 5.82

Data request: Reported IC90, molecule Cc1cccc(Oc2ccc(S(N)(=O)=O)cc2CC(C)C)c1 : ____
Data returned: 50

Data request: Can you share its IC90? I mean this molecule: CN(CCO)[C@H]1CC[C@@H](c2ccc(Cl)c(Cl)c2)c2ccccc21
Data returned: 21.9

Data request: Given CSc1ccc(Oc2ccc(S(N)(=O)=O)cc2CN2CC[C@H](N(C)C)C2)cc1C , state its recorded IC90.
Data returned: 13.2

Data request: // IC90 lookup, key: CN[C@H]1CC[C@@H](c2ccc(Cl)c(Cl)c2)c2ccc(NC(=O)C3CCCC3)cc21
Data returned: 5.89
